system: HepG2; assay: Hepatoprotective activity in human HepG2 cells assessed as inhibition of APAP-induced cell damage at 10 uM by MTT assay relative to control; assay type: functional
measured quantity: inhibition at 10 µM (%)
State the answer as a number, implicitly in %.

Sample answers from the record:
compound	measure unit	inhibition at 10 µM
COC(=O)[C@H]1O[C@H]2C[C@]1(C)C(CCCO[C@@H]1O[C@H](CO)[C@@H](O)[C@H](O)[C@H]1O)[C@]1(C)C[C@@H](c3ccoc3)OC(=O)[C@H]21 (stereo partly specified)	%	-24.9
COc1cc(C[C@H]2CO[C@H](c3ccc(O)c(OC)c3)[C@H]2CO)ccc1O	%	-4.3
COc1cc(/C=C/C(=O)NCCc2ccc(O)cc2)ccc1O [N-TRANS-FERULOYL TYRAMINE]	%	3.5
COc1cc([C@@H]2OC[C@@H]3C(=O)OC[C@@H]32)cc(OC)c1O	%	17
C[C@@]12C[C@@H](c3ccoc3)OC(=O)C1=CC[C@]1(C)[C@H]2C[C@H]2COC(=O)[C@]21O	%	6.4
COC(=O)c1cc(OC)c2c(c1-c1c(CO)cc(OC)c3c1OCO3)OCO2	%	15.7
C[C@@H](O)/C=C/C1[C@]2(C)CO[C@@]1(C)C[C@@H](O)C2 (stereo partly specified)	%	19.2
O=C(/C=C/c1ccc(O)cc1)NCCc1ccc(O)cc1	%	39
C[C@@]12C[C@@H](c3ccoc3)OC(=O)C1=CC[C@]1(C)[C@H]2C[C@H]2COC(=O)[C@]21OC1O[C@H](CO)[C@@H](O)[C@H](O)[C@H]1O (stereo partly specified)	%	3.8
C[C@@]12C[C@H](C3=CC(=O)O[C@@H]3O)OC(=O)C1=CC[C@]1(C)[C@H]2C[C@H]2COC(=O)[C@]21O	%	4.9

Now turn to the next compound.
Request: Tell me inhibition at 10 µM reported for `C[C@@]12C[C@H](c3ccoc3)OC(=O)C1=CC[C@]1(C)[C@H]2C[C@H]2COC(=O)[C@]21O`
Result: 6.6
